test system: HOP-62 NSCLC; assay: NCI-60 one-dose screen, 48 h (100 = growth as untreated, 0 = no growth, -100 = all killed); conditions: 10 µM unless noted
This is part of a sample that, as a whole, favours compounds with a hit. Of some 83,000 tested, about 20% had one in any assay.
Quantity name: growth (%)
Answers are plain numbers, in %.

Solved cases (4 shown):
Compound | growth [%]
CC(=O)N1C(=S)NC(=O)C1Cn1c(-c2ccccc2)nc2ccccc21 (stereo not given) | 92.1
C=C1C(=O)O[C@H]2[C@H]1CC/C(CNC(=O)/C=C/c1ccc(Cl)cc1Cl)=C\CC[C@@]1(C)O[C@@H]21 | 17.2
Cc1cccc(NC(=O)N/C(N)=N/c2nc(C)c(C)s2)c1 | 55.3
COCCc1ccc(OCC(O)CNC(C)C)cc1 (stereo not given) | 101

Report growth for each item below.
1. CC1=C([Se]CC(OC(=O)CC[Se]c2ccccc2)C(=O)NCCCCCC(=O)OCc2ccccc2)C(=O)c2ccccc2C1=O (stereo not given)
2. COc1ccc(C(=O)COc2ccc(/C=C3\Oc4ccccc4C3=O)cc2)cc1
3. N#C/C(=C/C=C/c1cccc(Cl)c1)S(=O)c1ccccc1 (stereo not given)
4. O=C(NCCCNc1cc(-c2cn(-c3ccccc3)nc2-c2cccc(O)c2)ccn1)c1ccc(F)cc1
5. COc1ccc(N=Nc2ccc(O)c(=O)cc2)cc1
6. O=C(Nc1ccccc1-c1nc2ccccc2c(=O)[nH]1)c1cc2ccccc2[nH]1
7. Cc1cc(/C=C\c2ccc3ccccc3[n+]2C)c(O)c2ncccc12

RESULT:
[-15.1, 90.8, -17.4, 26.2, 19.1, 71.6, 20.3]

Return reported growth values for all items listed beneath this line.
1. Cc1cc(O)c(C2=NN(c3ccc(S(N)(=O)=O)cc3)C(c3ccccc3Cl)C2)cc1Cl (stereo not given)
2. COC(=O)c1c2c(c[n+]([O-])c1C)C(=O)C=CC2=O

RESULT:
1. -6.9
2. 104
